tested on: NCI-H460; experiment: Anticancer activity against Homo sapiens (human) NCI-H460 cells assessed as cell growth at 100 uM after 48 hr by Alamar blue assay; assay type: functional; settings: NCI-H460, 48 h, read-out: Activity
measure-name: growth at 100 µM (%)
The reply should be a number in %, with the unit left off.

Quick one: growth at 100 µM for `CCOC(=O)c1n[nH]c2nc3c(=O)n(C)c(=O)n(C)c3n2c1=N` ?
99

Can you handle `Cn1c(=O)c2c(n(C)c1=O)n1c(-c3ccccc3)nnc1n2C` next?
98

`Cn1c(=O)c2nc3[nH]nc(C#N)c(=N)n3c2n(C)c1=O` , same question.
62

Continue with `Cn1c(=O)c2c(n(C)c1=O)n1c(-c3ccc(Cl)cc3)nnc1n2C`
95
